Target: ENPP-1 ECD (Homo sapiens (Human))
Test: Inhibition of ENPP1 hydrolysis of 2′,3′-cGAMP (Assay 1)
Details: Assay 1 KI values (class), 2,3-cGAMP 24 μM, AMP-Glo luminescence, KI from IC50 via Cheng/Prusoff
MEASURED_QUANTITY: Ki

Query :: What does the data say about its Ki? Entry: Cc1nc2nccn2c(N(C)C)c1Cc1ccc(S(C)(=N)=O)cc1 (stereo not drawn)
Result :: < 3 nM

Query :: What Ki value was documented for this compound, CCN(CC)c1c(Cc2ccc(S(C)(=N)=O)cc2)c(C)nc2ncnn12 (stereo not drawn) ?
Result :: 3 to 300 nM

Query :: // returns reported Ki for input Cc1nc2ncnn2c(N2CCCC2)c1Cc1ccc(B(O)O)cc1
Result :: < 3 nM

---

Can you tell me pKi for the items I'm about to list?
Target: ENPP1 on MDA-MB-231 cells (Homo sapiens (Human), UniProt P22413)
Sequence (P22413 whole entry): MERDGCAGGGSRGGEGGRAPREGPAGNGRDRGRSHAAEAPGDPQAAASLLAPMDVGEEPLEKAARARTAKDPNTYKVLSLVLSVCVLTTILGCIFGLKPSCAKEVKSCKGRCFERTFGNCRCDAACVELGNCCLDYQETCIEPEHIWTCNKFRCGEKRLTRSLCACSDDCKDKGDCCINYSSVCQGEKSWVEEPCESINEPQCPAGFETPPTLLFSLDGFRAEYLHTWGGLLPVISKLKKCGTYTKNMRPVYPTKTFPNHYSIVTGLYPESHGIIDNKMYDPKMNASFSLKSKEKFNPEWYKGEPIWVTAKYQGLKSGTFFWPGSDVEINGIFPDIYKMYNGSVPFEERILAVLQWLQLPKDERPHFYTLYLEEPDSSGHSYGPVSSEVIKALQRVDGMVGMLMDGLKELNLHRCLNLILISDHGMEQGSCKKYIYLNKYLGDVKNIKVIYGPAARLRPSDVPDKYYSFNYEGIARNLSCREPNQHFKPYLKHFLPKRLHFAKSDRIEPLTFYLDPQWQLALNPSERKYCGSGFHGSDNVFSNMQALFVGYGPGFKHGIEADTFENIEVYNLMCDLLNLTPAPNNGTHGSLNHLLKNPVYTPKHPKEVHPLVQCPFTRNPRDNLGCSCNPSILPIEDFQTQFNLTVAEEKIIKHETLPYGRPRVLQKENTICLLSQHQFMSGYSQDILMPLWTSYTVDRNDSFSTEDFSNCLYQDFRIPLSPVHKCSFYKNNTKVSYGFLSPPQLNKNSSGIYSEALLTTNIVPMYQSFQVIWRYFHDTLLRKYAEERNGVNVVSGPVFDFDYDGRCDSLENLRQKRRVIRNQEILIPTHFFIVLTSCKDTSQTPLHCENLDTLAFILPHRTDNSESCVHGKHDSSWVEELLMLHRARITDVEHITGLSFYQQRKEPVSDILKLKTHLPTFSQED
Assay: Inhibition of ENPP1 hydrolysis of AMP p-nitrophenyl ester on MDA-MB-231 cells (Assay 2)
Type: cell-based
Conditions: pNP-AMP 0.25 mM, MDA-MB-231 cells, 37° C. 3 h, KI,app from IC50 via Cheng/Prusoff; read-out: Assay 2 KI,app values (class)
pKi: −log10 of the molar value.

Query :: Request body: readout pKi, system ENPP1 on MDA-MB-231 cells (Homo sapiens (Human), UniProt P22413), query Cc1nc2ncnn2c(N(C)C)c1Cc1ccc(S(=N)(=O)CCO)cc1 (stereo not shown) . Return the value.
Result :: < 8.00

Query :: Field: pKi (ENPP1 on MDA-MB-231 cells (Homo sapiens (Human), UniProt P22413)). Entry: Cc1nc2ncnn2c(N2CCCCC2)c1Cc1ccc([S@](C)(=N)=O)cc1 [Compound 16a]
Result :: < 8.00

Query :: Observed pKi on ENPP1 on MDA-MB-231 cells (Homo sapiens (Human), UniProt P22413) for Cc1nc2ncnn2c(N2CCCC2)c1Cc1ccc(C(=O)NO)cc1 , please.
Result :: < 8.00

Query :: Form: Entry = CCS(=N)(=O)c1ccc(Cc2c(C)nc3ncnn3c2N(C)C)cc1 (stereo not shown) | System = ENPP1 on MDA-MB-231 cells (Homo sapiens (Human), UniProt P22413) | pKi = ____
Result :: > 8.00

Query :: Given the entry Cc1nc2ncnn2c(N(C)C)c1Cc1ccc(S(N)(=O)=O)cc1 , what pKi was observed with ENPP1 on MDA-MB-231 cells (Homo sapiens (Human), UniProt P22413)?
Result :: < 8.00

Query :: Lab request: please report pKi under test system ENPP1 on MDA-MB-231 cells (Homo sapiens (Human), UniProt P22413) for CN(C)c1c(Cc2ccc(S(C)(=N)=O)cc2)c(C#N)nc2ncnn12 (stereo not shown)
Result :: < 8.00

Query :: // lookup pKi | system=ENPP1 on MDA-MB-231 cells (Homo sapiens (Human), UniProt P22413) | key= CN(C)c1c(Cc2ccc([S@@](C)(=N)=O)cc2)c(Cl)nc2ncnn12 [Compound 74a]
Result :: > 8.00
